Sourced from paper PMC7497253

Target: bZiPro (unlinked binary Zika virus NS2B-NS3 protease) (Zika virus)
Construct: The viral protease consists of the N‐terminal third of the nonstructural protein NS3; the NS2B construct ends at Glu96; His6 (cleaved yes); made in house
Sequence (A0A024B7W1 1503-1680 limits assumed): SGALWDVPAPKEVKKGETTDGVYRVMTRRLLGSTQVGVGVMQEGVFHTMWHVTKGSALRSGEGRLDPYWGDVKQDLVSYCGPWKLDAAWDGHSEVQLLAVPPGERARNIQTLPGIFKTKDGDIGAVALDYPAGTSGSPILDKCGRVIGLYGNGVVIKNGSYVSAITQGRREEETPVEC
Sequence (A0A024B7W1 1425-1464 limits assumed): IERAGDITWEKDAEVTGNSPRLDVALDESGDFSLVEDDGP
Protocol Description: Enzyme kinetics with bZiPro, fluorogenic substrate Phac-Leu-Lys-Lys-Arg-AMC
Format: biochemical
Experimental Setup: K i against bZiPro / ZIKV protease, value given in running text
Endpoint Name: pKi
// pKi: -log10(molar conc.)

N=C(N)N[C@@H]1CCCCNC(=O)[C@H](CCCCN)NC(=O)[C@H](CCCCN)NC(=O)Cc2cccc(c2)NC(=O)CCNC1=O	7.10

Proceed to the following item.
Input line: Please give the measured pKi for this molecule: N=C(N)N[C@H]1CC[C@H](CNC(=O)[C@H](CCCCN)NC(=O)[C@H](CCCCN)NC(=O)Cc2ccc(Cl)c(Cl)c2)CC1 [Inhibitor 1, 3,4‐dichloro‐Phac‐Lys‐Lys‐GCMA, reference compound]
Output line: 7.85
